Origin of measurements: the supplement of paper PMC9112550

System: Escherichia coli TOP10
Assay: shrunken log2 fold change of peptide-encoding DNA abundance (4.5 h post-induction vs induction); higher = less antimicrobial activity (less host growth inhibition)
Details: time post-induction: 4.5 h; library: site-saturation at positions 5, 18, 19, 20
Outcome Measure: shrunken log2 fold change

In [3]: df
Out[3]:
                        seq  readout_value
 0  RRIRKRPPRLPRPRPRPHDDPRP          0.171
 1  RRIRVRPPRLPRPRPRPKWSPRP         0.0979
 2  RRIRDRPPRLPRPRPRPWKCPRP          0.118
 3  RRIRQRPPRLPRPRPRPVMIPRP         -0.286
 4  RRIRFRPPRLPRPRPRPKYAPRP         -0.145
 5  RRIRPRPPRLPRPRPRPDAYPRP         -0.334
 6  RRIRGRPPRLPRPRPRPPQEPRP          0.352
 7  RRIRSRPPRLPRPRPRPTCSPRP         0.0811
 8  RRIRTRPPRLPRPRPRPRQNPRP          0.067
 9  RRIRRRPPRLPRPRPRPMVEPRP         -0.257
10  RRIRMRPPRLPRPRPRPTPQPRP           1.31
11  RRIRFRPPRLPRPRPRPLWEPRP          -0.12
12  RRIRDRPPRLPRPRPRPVWEPRP         0.0337
13  RRIRRRPPRLPRPRPRPVFWPRP          0.369
14  RRIRMRPPRLPRPRPRPQNAPRP         0.0821
15  RRIRYRPPRLPRPRPRPPAYPRP         -0.767
16  RRIRQRPPRLPRPRPRPDPNPRP         -0.187
17  RRIRWRPPRLPRPRPRPRMFPRP          0.182
18  RRIRARPPRLPRPRPRPQDVPRP         -0.136
19  RRIRYRPPRLPRPRPRPCKNPRP          -1.05
20  RRIRWRPPRLPRPRPRPGVMPRP          0.477
21  RRIRPRPPRLPRPRPRPDHEPRP         0.0217
22  RRIRQRPPRLPRPRPRPGKDPRP         -0.115
23  RRIRARPPRLPRPRPRPHSSPRP         -0.137
24  RRIRSRPPRLPRPRPRPSKDPRP          -0.61
25  RRIRPRPPRLPRPRPRPWDWPRP        0.00784
26  RRIRIRPPRLPRPRPRPPQRPRP           0.27
27  RRIRNRPPRLPRPRPRPIQCPRP          -0.01
28  RRIRLRPPRLPRPRPRPYPDPRP         -0.598
29  RRIRSRPPRLPRPRPRPVTYPRP         -0.273
30  RRIRQRPPRLPRPRPRPQDTPRP         -0.555
31  RRIRVRPPRLPRPRPRPYVFPRP         -0.136
32  RRIRARPPRLPRPRPRPYDLPRP         0.0526
33  RRIRNRPPRLPRPRPRPKWSPRP         0.0717

====

System: Escherichia coli TOP10
Assay: shrunken log2 fold change of peptide-encoding DNA abundance (4.5 h post-induction vs induction); higher = less antimicrobial activity (less host growth inhibition)
Conditions: time post-induction: 4.5 h; library: site-saturation at positions 5, 18, 19, 20
Recorded shrunken log2 fold change, one value per entry.
Outcome Measure: shrunken log2 fold change

In [3]: df
Out[3]:
                       seq  readout_value
0  RRIRQRPPRLPRPRPRPPDEPRP         0.0836
1  RRIRGRPPRLPRPRPRPEPIPRP          0.296
2  RRIRRRPPRLPRPRPRPPTMPRP          0.374
3  RRIRGRPPRLPRPRPRPCPFPRP         -0.218
4  RRIRARPPRLPRPRPRPTRVPRP          0.343
5  RRIRCRPPRLPRPRPRPDGFPRP         -0.333
6  RRIRGRPPRLPRPRPRPKHMPRP         0.0797
7  RRIRQRPPRLPRPRPRPIHGPRP        -0.0264

====

Tested on: Escherichia coli TOP10;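 also: peptides expressed intracellularly from a pBAD plasmid library in pooled LB shake-flask culture, induced with 0.3% L-arabinose, DNA abundance read by NGS, three biological replicates, DESeq2 with apeglm shrinkage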
Experiment: shrunken log2 fold change of peptide-encoding DNA abundance (4.5 h post-induction vs induction); higher = less antimicrobial activity (less host growth inhibition)
Conditions: time post-induction: 4.5 h; library: site-saturation at positions 5, 18, 19, 20
Measured shrunken log2 fold change accompanies every entry in the list below.
Outcome Measure: shrunken log2 fold change

                        seq  readout_value
 0  RRIRKRPPRLPRPRPRPPYYPRP         -0.291
 1  RRIRGRPPRLPRPRPRPDQPPRP           1.01
 2  RRIRPRPPRLPRPRPRPKDDPRP        -0.0737
 3  RRIRWRPPRLPRPRPRPNPYPRP         -0.133
 4  RRIRPRPPRLPRPRPRPDTYPRP         -0.623
 5  RRIRWRPPRLPRPRPRPSEGPRP         0.0528
 6  RRIRIRPPRLPRPRPRPTWWPRP         0.0347
 7  RRIRGRPPRLPRPRPRPIQVPRP          0.118
 8  RRIRQRPPRLPRPRPRPIAMPRP        -0.0149
 9  RRIRIRPPRLPRPRPRPKIIPRP         -0.468
10  RRIRRRPPRLPRPRPRPSGNPRP          0.122
11  RRIRNRPPRLPRPRPRPNTGPRP         0.0312
12  RRIRGRPPRLPRPRPRPQSEPRP          0.273
13  RRIRGRPPRLPRPRPRPINRPRP         -0.231
14  RRIRYRPPRLPRPRPRPFLYPRP         -0.881
15  RRIRLRPPRLPRPRPRPANSPRP         -0.202
16  RRIRERPPRLPRPRPRPDPNPRP         0.0422
17  RRIRLRPPRLPRPRPRPAHAPRP          0.195
18  RRIRNRPPRLPRPRPRPPPGPRP          0.863
19  RRIRERPPRLPRPRPRPGRRPRP         0.0607
20  RRIRNRPPRLPRPRPRPMNEPRP         0.0961
21  RRIRGRPPRLPRPRPRPTVHPRP           1.77
22  RRIRPRPPRLPRPRPRPQKIPRP         -0.267
23  RRIRSRPPRLPRPRPRPLPKPRP          0.493
24  RRIRDRPPRLPRPRPRPHTYPRP         -0.163
25  RRIRNRPPRLPRPRPRPLYFPRP         -0.477
26  RRIRYRPPRLPRPRPRPIVCPRP         -0.134
27  RRIRKRPPRLPRPRPRPQLNPRP         0.0489
28  RRIRPRPPRLPRPRPRPSVYPRP         -0.361
29  RRIRLRPPRLPRPRPRPNELPRP         0.0122
30  RRIRFRPPRLPRPRPRPYCKPRP         -0.243
31  RRIRWRPPRLPRPRPRPKNIPRP         -0.159
32  RRIRSRPPRLPRPRPRPPVNPRP         -0.489
33  RRIRARPPRLPRPRPRPSNFPRP         -0.221
34  RRIRQRPPRLPRPRPRPHNKPRP         -0.599
35  RRIRNRPPRLPRPRPRPVPWPRP           0.23
36  RRIRGRPPRLPRPRPRPDELPRP          0.955
37  RRIRTRPPRLPRPRPRPKAGPRP          0.768
38  RRIRPRPPRLPRPRPRPGKVPRP        -0.0669
39  RRIRCRPPRLPRPRPRPSSSPRP         -0.366
40  RRIRCRPPRLPRPRPRPGNLPRP         -0.167
41  RRIRRRPPRLPRPRPRPHSAPRP         0.0905
42  RRIRNRPPRLPRPRPRPYRAPRP         -0.183
43  RRIRRRPPRLPRPRPRPKERPRP         -0.327
44  RRIRKRPPRLPRPRPRPPEVPRP          0.741
45  RRIRYRPPRLPRPRPRPGVIPRP         -0.297
46  RRIRNRPPRLPRPRPRPRDGPRP          0.292
47  RRIRIRPPRLPRPRPRPELIPRP         0.0381
48  RRIRTRPPRLPRPRPRPPCFPRP          0.153
49  RRIRCRPPRLPRPRPRPAKEPRP        -0.0092
50  RRIRVRPPRLPRPRPRPPAEPRP          0.253
51  RRIRLRPPRLPRPRPRPDIFPRP         -0.282
52  RRIRKRPPRLPRPRPRPAMSPRP         -0.146
53  RRIRYRPPRLPRPRPRPGWTPRP         -0.103
54  RRIRPRPPRLPRPRPRPNEEPRP        -0.0581
